molecular target: MNK1b (Homo sapiens); test: ELONA binding of biotin-labeled aptamer; conditions: ELONA, biotin-labeled aptamer 0 to 500 nM, GST-MNK1b
Sequence (Q9BUB5 1-347 isoform Q9BUB5-3): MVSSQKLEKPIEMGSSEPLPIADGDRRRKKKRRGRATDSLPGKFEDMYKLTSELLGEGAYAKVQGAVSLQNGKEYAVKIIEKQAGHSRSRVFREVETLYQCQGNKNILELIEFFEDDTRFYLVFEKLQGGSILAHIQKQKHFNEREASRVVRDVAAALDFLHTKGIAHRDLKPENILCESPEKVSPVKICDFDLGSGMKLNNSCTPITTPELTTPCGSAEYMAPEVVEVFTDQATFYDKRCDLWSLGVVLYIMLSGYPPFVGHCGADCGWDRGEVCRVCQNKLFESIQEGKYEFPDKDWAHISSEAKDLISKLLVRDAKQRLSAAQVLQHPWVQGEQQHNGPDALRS

| substance | unit_of_measure | Kd |
| --- | --- | --- |
| 5′TGGGGTGGGCGGGCGGGGGTGGGGGTGGT-3′ (DNA, backbone and methylation of C not given here; further chemistry not fully specified) [apMNKQ2] | nM | 15.5 |
